// data source = patent US12390437B2

Test: Hepatocyte stability assay (mouse)
Type: in vitro ADME
Conditions: cryopreserved hepatocytes, 10 μM compound, 0.5×10^6 cells/mL, 60 minutes, read-out: T½
Measured half-life at 10 μM of individual entries
observation.type: half-life at 10 μM (min)

INSERT INTO assay_data (compound, value_prefix, observed_result) VALUES
  ('C=C(CC(=O)O[C@@H](C)CCCCCC)C(=O)OCC(=O)O', '=', 13),
  ('C=C(CC(=O)OC1CCCCC1)C(=O)OCc1nnn[nH]1', '=', 16),
  ('C=C(CC(=O)OC(C)(C)CCCCCC)C(=O)OCC(=O)O', '=', 5),
  ('C=C(CC(=O)O[C@@H](C)CCCCCC)C(=O)OCCc1nnn[nH]1', '=', 4),
  ('C=C(CC(=O)OC1CCCCCCC1)C(=O)OC(C)c1nnn[nH]1 (stereo not drawn)', '=', 14),
  ('C=C(CC(=O)OC1CC2(CCC2)C1)C(=O)OCC(=O)O', '=', 12),
  ('C=C(CC(=O)O[C@H](C)CCCCCC)C(=O)OCc1nn[nH]n1', '<', 3),
  ('C=C(CC(=O)OCCCCCCCC)C(=O)OCCC(=O)O', '=', 9),
  ('C=C(CC(=O)O[C@H](C)CCCCCC)C(=O)OCCC(=O)O', '=', 7);
